test system: E. faecium ATCC 19434; assay: MIC, CLSI broth microdilution (Table 1); assay type: cell-based; settings: Enterococcus faecium, ATCC19434, read-out: MIC E. faecium ATCC 19434
Structures can show the parent of a compound that is named as a salt.
Parameter: MIC. Scope: all listed entries.
measurement.kind: MIC

Cc1c(-c2ccc(N)c(F)c2)ccn2c(=O)c(C(=O)O)cc(C3CC3)c12 [Example 2 K salt] = 0.25 µg/mL
Cc1c(-c2cc(F)c(N)c(F)c2)ccn2c(=O)c(C(=O)O)cc(C3CC3)c12 [Example 39 K salt] = 0.25 µg/mL
Cc1c(-c2ccc(CN)cc2)ccn2c(=O)c(C(=O)O)cc(C3CC3)c12 [Example 31 K salt] = 2 µg/mL
Cc1c(-c2ccc(N)nc2)ccn2c(=O)c(C(=O)O)cc(C3CC3)c12 [Example 21 K salt] = 0.5 µg/mL
